System: Matricaria inodora
Test: Pre-emergence herbicidal effect
Type: in vivo
Conditions: dosage 80 g a.i./ha
Property: Herbicidal activity against MATIN; scope: individual compounds
measured attribute: Herbicidal activity against MATIN (%)

INSERT INTO assay_data (compound, test_result) VALUES
  ('C/C(=N/Oc1ccc(F)cc1)c1cnc(N[C@H]2c3cc(C)ccc3C[C@@H]2C)nc1 [Compound 1.101b]', 80),
  ('CC/C(=N/O)c1cnc(N[C@H]2c3cc(C)ccc3C[C@@H]2C)nc1CC [Compound 1.40b]', 90),
  ('C/C(=N\Oc1ccc(F)cc1)c1cnc(N[C@H]2c3cc(C)ccc3C[C@@H]2C)nc1 [Compound 1.101a]', 80),
  ('CCO/N=C(\C)c1cnc(N[C@H]2c3cc(C)ccc3C[C@@H]2C)nc1 [Compound 1.103a]', 90),
  ('CC/C(=N\O)c1cnc(N[C@H]2c3cc(C)ccc3C[C@@H]2C)nc1CC [Compound 1.40a]', 90),
  ('CCO/N=C(/C)c1cnc(N[C@H]2c3cc(C)ccc3C[C@@H]2C)nc1 [Compound 1.103b]', 100);

###

Assay: logp (HCOOH), physicochemical characterization
Details: HCOOH (formic acid)
measured attribute: chromatographic logP

INSERT INTO assay_data (compound, measured_attribute, test_result) VALUES
  ('CC/C(=N/O)c1cnc(N[C@H]2c3cc(C)ccc3C[C@@H]2C)nc1CC [Compound 1.40b]', 'chromatographic logP', 3.86),
  ('CCO/N=C(/C)c1cnc(N[C@H]2c3cc(C)ccc3C[C@@H]2C)nc1 [Compound 1.103b]', 'chromatographic logP', 4.92),
  ('CCCC/C(=N\O)c1cnc(N[C@H]2c3cc(C)ccc3C[C@@H]2C)nc1 [Compound 1.85a]', 'chromatographic logP', 3.86),
  ('CC/C(=N\O)c1cnc(N[C@H]2c3cc(C)ccc3C[C@@H]2C)nc1CC [Compound 1.40a]', 'chromatographic logP', 3.71),
  ('C/C(=N/Oc1ccc(F)cc1)c1cnc(N[C@H]2c3cc(C)ccc3C[C@@H]2C)nc1 [Compound 1.101b]', 'chromatographic logP', 5.56),
  ('CCCC/C(=N/O)c1cnc(N[C@H]2c3cc(C)ccc3C[C@@H]2C)nc1 [Compound 1.85b]', 'chromatographic logP', 4.1),
  ('C/C(=N\Oc1ccc(F)cc1)c1cnc(N[C@H]2c3cc(C)ccc3C[C@@H]2C)nc1 [Compound 1.101a]', 'chromatographic logP', 5.34);

###

// Herbicidal activity against STEME lookup, one value per entry
Test system: Stellaria media
Assay: Post-emergence herbicidal effect
Type: in vivo
Settings: dosage 320 g a.i./ha, visual score after about 3 weeks
measured attribute: Herbicidal activity against STEME

INSERT INTO measurements (compound, measured_attribute, test_result) VALUES
  ('CCO/N=C(\C)c1cnc(N[C@H]2c3cc(C)ccc3C[C@@H]2C)nc1 [Compound 1.103a]', 'Herbicidal activity against STEME', '90%'),
  ('C/C(=N\Oc1ccc(F)cc1)c1cnc(N[C@H]2c3cc(C)ccc3C[C@@H]2C)nc1 [Compound 1.101a]', 'Herbicidal activity against STEME', '90%'),
  ('CC/C(=N/O)c1cnc(N[C@H]2c3cc(C)ccc3C[C@@H]2C)nc1CC [Compound 1.40b]', 'Herbicidal activity against STEME', '80%'),
  ('CCO/N=C(/C)c1cnc(N[C@H]2c3cc(C)ccc3C[C@@H]2C)nc1 [Compound 1.103b]', 'Herbicidal activity against STEME', '90%'),
  ('CCCC/C(=N\O)c1cnc(N[C@H]2c3cc(C)ccc3C[C@@H]2C)nc1 [Compound 1.85a]', 'Herbicidal activity against STEME', '90%'),
  ('C/C(=N/Oc1ccc(F)cc1)c1cnc(N[C@H]2c3cc(C)ccc3C[C@@H]2C)nc1 [Compound 1.101b]', 'Herbicidal activity against STEME', '90%');

###

System: Polygpnum convolvulus
Assay: Post-emergence herbicidal effect
Format: in vivo
Settings: dosage 320 g a.i./ha, visual score after about 3 weeks
measured attribute: Herbicidal activity against POLCO (%)

INSERT INTO measurements (molecule, unit_text, test_result) VALUES
  ('C/C(=N/Oc1ccc(F)cc1)c1cnc(N[C@H]2c3cc(C)ccc3C[C@@H]2C)nc1 [Compound 1.101b]', '%', 100),
  ('CCO/N=C(\C)c1cnc(N[C@H]2c3cc(C)ccc3C[C@@H]2C)nc1 [Compound 1.103a]', '%', 100),
  ('CCO/N=C(/C)c1cnc(N[C@H]2c3cc(C)ccc3C[C@@H]2C)nc1 [Compound 1.103b]', '%', 100),
  ('C/C(=N\Oc1ccc(F)cc1)c1cnc(N[C@H]2c3cc(C)ccc3C[C@@H]2C)nc1 [Compound 1.101a]', '%', 100),
  ('CCCC/C(=N\O)c1cnc(N[C@H]2c3cc(C)ccc3C[C@@H]2C)nc1 [Compound 1.85a]', '%', 80),
  ('CC/C(=N/O)c1cnc(N[C@H]2c3cc(C)ccc3C[C@@H]2C)nc1CC [Compound 1.40b]', '%', 80);

###

Tested on: Polygpnum convolvulus
Test: Post-emergence herbicidal effect
Format: in vivo
Conditions: dosage 80 g a.i./ha, visual score after about 3 weeks
measured attribute: Herbicidal activity against POLCO (%)

INSERT INTO assay_data (molecule, test_result) VALUES
  ('C/C(=N\Oc1ccc(F)cc1)c1cnc(N[C@H]2c3cc(C)ccc3C[C@@H]2C)nc1 [Compound 1.101a]', 100),
  ('CCO/N=C(/C)c1cnc(N[C@H]2c3cc(C)ccc3C[C@@H]2C)nc1 [Compound 1.103b]', 90),
  ('C/C(=N/Oc1ccc(F)cc1)c1cnc(N[C@H]2c3cc(C)ccc3C[C@@H]2C)nc1 [Compound 1.101b]', 80),
  ('CC/C(=N/O)c1cnc(N[C@H]2c3cc(C)ccc3C[C@@H]2C)nc1CC [Compound 1.40b]', 80),
  ('CCO/N=C(\C)c1cnc(N[C@H]2c3cc(C)ccc3C[C@@H]2C)nc1 [Compound 1.103a]', 90),
  ('CCCC/C(=N\O)c1cnc(N[C@H]2c3cc(C)ccc3C[C@@H]2C)nc1 [Compound 1.85a]', 80);

###

Test system: Polygpnum convolvulus
Assay: Pre-emergence herbicidal effect
Type: in vivo
Conditions: dosage 80 g a.i./ha
measured attribute: Herbicidal activity against POLCO (%)

INSERT INTO results (molecule, measured_attribute, test_result) VALUES
  ('C/C(=N\Oc1ccc(F)cc1)c1cnc(N[C@H]2c3cc(C)ccc3C[C@@H]2C)nc1 [Compound 1.101a]', 'Herbicidal activity against POLCO', 90),
  ('CC/C(=N/O)c1cnc(N[C@H]2c3cc(C)ccc3C[C@@H]2C)nc1CC [Compound 1.40b]', 'Herbicidal activity against POLCO', 100),
  ('CC/C(=N\O)c1cnc(N[C@H]2c3cc(C)ccc3C[C@@H]2C)nc1CC [Compound 1.40a]', 'Herbicidal activity against POLCO', 100),
  ('CCO/N=C(/C)c1cnc(N[C@H]2c3cc(C)ccc3C[C@@H]2C)nc1 [Compound 1.103b]', 'Herbicidal activity against POLCO', 100);

###

The entries below are paired with their reported Herbicidal activity against VIOTR.
System: Viola tricolor
Test: Pre-emergence herbicidal effect
Type: in vivo
Details: dosage 80 g a.i./ha
measured attribute: Herbicidal activity against VIOTR

INSERT INTO assay_data (compound, measured_attribute, test_result) VALUES
  ('C/C(=N/Oc1ccc(F)cc1)c1cnc(N[C@H]2c3cc(C)ccc3C[C@@H]2C)nc1 [Compound 1.101b]', 'Herbicidal activity against VIOTR', '90%'),
  ('CC/C(=N/OCc1ccc(Cl)cc1)c1cnc(N[C@H]2c3cc(C)ccc3C[C@@H]2C)nc1CC [Compound 1.115b]', 'Herbicidal activity against VIOTR', '90%'),
  ('CCO/N=C(\C)c1cnc(N[C@H]2c3cc(C)ccc3C[C@@H]2C)nc1 [Compound 1.103a]', 'Herbicidal activity against VIOTR', '100%'),
  ('CC/C(=N\O)c1cnc(N[C@H]2c3cc(C)ccc3C[C@@H]2C)nc1CC [Compound 1.40a]', 'Herbicidal activity against VIOTR', '100%'),
  ('CCO/N=C(/C)c1cnc(N[C@H]2c3cc(C)ccc3C[C@@H]2C)nc1 [Compound 1.103b]', 'Herbicidal activity against VIOTR', '100%'),
  ('CCCC/C(=N/O)c1cnc(N[C@H]2c3cc(C)ccc3C[C@@H]2C)nc1 [Compound 1.85b]', 'Herbicidal activity against VIOTR', '100%'),
  ('CC/C(=N/O)c1cnc(N[C@H]2c3cc(C)ccc3C[C@@H]2C)nc1CC [Compound 1.40b]', 'Herbicidal activity against VIOTR', '100%'),
  ('CCCC/C(=N\O)c1cnc(N[C@H]2c3cc(C)ccc3C[C@@H]2C)nc1 [Compound 1.85a]', 'Herbicidal activity against VIOTR', '100%');
